Where do the numbers come from? From patent US20200362047A1.

Measured EC50 accompanies every entry in the list below.
# measurement_target: T1, CD137 on pre-stimulated human CD8+ T cells (human, UniProt Q07011 24-255)
# T1 construct: also called pre-stimulated CD8+ cells; primary T cells
# T1 sequence (Q07011 24-255 limits assumed): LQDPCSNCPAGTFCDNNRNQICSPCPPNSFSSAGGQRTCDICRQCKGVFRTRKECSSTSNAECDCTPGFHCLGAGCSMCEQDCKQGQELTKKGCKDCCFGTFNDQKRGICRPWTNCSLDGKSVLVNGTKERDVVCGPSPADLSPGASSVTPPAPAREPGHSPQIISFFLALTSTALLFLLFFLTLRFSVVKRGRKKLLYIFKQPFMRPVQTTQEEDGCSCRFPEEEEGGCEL
# assay_comment: flow cytometry, PMA/ionomycin-stimulated human CD8+ T cells, mean of 2-3 donors

{"columns": ["binder", "EC50"],
 "data": [
  ["Humabody VH 1.11 (VHH, human single VH domain) VH: EVQLVESGGGLVQPGGSLRLSCEASGFTFSDYWMNWARQAPGKGLEWVANIKEDGSEKYYVDSVEGRFTISRDNAKNSTYLQMNSLRAEDTAVYYCARGGAGYSMSHYGMDVWGQGTTVTVSSHHHHHH", "0.89 nM"],
  ["4.1(PSMA-binding VH)-6GS-2.1 (bispecific antibody, tandem VH, PSMA x CD137; also called 4.1-6GS-2.1; not shown: His tag) EVQLVESGGGVVQPGRSLRLSCAASGFSFSGYGMHWVRQAPGKGLEWVAYISYDGSNKYYADSVKGRFTISRDNSKNTLYLQMNSLRAEDTAVYYCAKDPAWGLRLGESSSYDFDIWGQGTMVTVSSGGGGSGGGGSGGGGSGGGGSGGGGSGGGGSEVQLVESGGGLVKPGGSLRVSCAASGFTFSDYYMSWFRQAPGKGLEWVSYISGSGDIIDYADSVKGRFTISRDNAKNSLYLQMNNLRAEDTAVYHCAREDSRLTGTTDFDNWGQGTLVTVSS", "3 nM"],
  ["4.1(PSMA-binding VH)-6GS-1.1 (bispecific antibody, tandem VH, PSMA x CD137; also called 4.1-6GS-1.1; not shown: His tag) EVQLVESGGGVVQPGRSLRLSCAASGFSFSGYGMHWVRQAPGKGLEWVAYISYDGSNKYYADSVKGRFTISRDNSKNTLYLQMNSLRAEDTAVYYCAKDPAWGLRLGESSSYDFDIWGQGTMVTVSSGGGGSGGGGSGGGGSGGGGSGGGGSGGGGSEVQLVESGGGLVQPGGSLRLSCAASGFTFSSHWMTWFRQAPGKGLEWVAHIKEDGSEKYYEDSVEGRFTVSRDNAKNSVYLQMNSLRAEDTAVYYCARGGDGYSDSHFGVDVWGQGTTVTVSS", "0.73 nM"],
  ["Humabody VH 2.8 (VHH, human single VH domain) VH: EVQLVESGGGLVKPGGSLRLSCAASGFAFSDYYMSWFRQAPGKGLEWVSHISGSGTTIDYADSVKGRFTISRDNAKNSLYLQMNSLRAEDTAVYHCAREDSRMPGTTDFDNWGQGTLVTVSSHHHHHH", "6.5 nM"]
]}
